# Assay target: SmGluCl-2.1 (SmGluCl-2) (Schistosoma mansoni)
# Construct: full-length subunit isoform 1, homomeric receptor (KC861382)
# Sequence (T2C5A6 entry or part of it): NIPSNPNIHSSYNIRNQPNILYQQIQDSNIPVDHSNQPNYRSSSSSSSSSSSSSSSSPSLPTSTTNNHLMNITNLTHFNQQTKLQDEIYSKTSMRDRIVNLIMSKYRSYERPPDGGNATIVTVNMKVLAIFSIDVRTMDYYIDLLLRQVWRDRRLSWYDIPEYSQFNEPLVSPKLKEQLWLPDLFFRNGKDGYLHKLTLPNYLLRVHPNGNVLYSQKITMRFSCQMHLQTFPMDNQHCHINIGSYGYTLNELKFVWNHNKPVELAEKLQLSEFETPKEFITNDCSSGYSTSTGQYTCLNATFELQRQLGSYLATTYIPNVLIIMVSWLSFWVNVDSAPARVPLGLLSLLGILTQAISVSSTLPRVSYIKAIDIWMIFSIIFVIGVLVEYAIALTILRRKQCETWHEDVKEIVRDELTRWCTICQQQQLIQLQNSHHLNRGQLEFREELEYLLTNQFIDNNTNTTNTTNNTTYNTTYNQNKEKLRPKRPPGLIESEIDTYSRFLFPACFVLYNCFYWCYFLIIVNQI
# Test summary: two-electrode voltage clamp in Xenopus oocytes
Reported metric: EC50 (µM)
Numbers only, in µM.

# return recorded EC50 for input N[C@@H](CCC(=O)O)C(=O)O [L-glutamate] 11.8
